Target: T1, human Sdc2 (human, UniProt P34741 19-144, limits assumed)
T1 construct: Antigen of the Octet tandem binning, loaded on biosensors at 100 nM; also called huSdc2; hSdc2
T1 sequence (P34741 19-144 limits assumed): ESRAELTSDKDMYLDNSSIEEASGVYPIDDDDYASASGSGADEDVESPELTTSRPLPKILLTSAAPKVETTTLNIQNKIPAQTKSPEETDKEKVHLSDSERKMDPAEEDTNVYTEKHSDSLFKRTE
Assay: Octet tandem binning; saturating Ab f10 19838-10-I12-A
Protocol: These studies were performed in a tandem binning assay format with human Sdc2, used as the antigen (concentration of 100 nM). Antigen loaded biosensors were dipped in a saturating solution of antibody (25 μg/ml) for 240 seconds followed by a competing antibody at 5 μg/ml for 180 seconds. […] Since saturation is not possible to achieve saturation with these clones, they are removed in as ligands, but retained in the analyte orientation in the analysis. […]
Recorded raw competing-Ab binding signal for the following binders
Respond using a number only.

Given item R4M-P3-E06 (antibody, human IgG1, kappa, V domains shown, human IgG1 kappa from the phage campaign) VH: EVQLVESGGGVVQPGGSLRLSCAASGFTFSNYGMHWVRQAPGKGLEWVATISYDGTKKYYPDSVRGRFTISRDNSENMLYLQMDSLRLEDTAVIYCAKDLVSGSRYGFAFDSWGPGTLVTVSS VL: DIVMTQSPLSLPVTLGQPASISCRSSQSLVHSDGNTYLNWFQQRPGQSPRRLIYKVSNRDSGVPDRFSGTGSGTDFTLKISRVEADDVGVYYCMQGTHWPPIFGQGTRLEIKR , the value recorded as its raw competing-Ab binding signal is 0.241

Given item 6-N03-A (antibody, mouse IgG1, kappa, V domains shown) VH: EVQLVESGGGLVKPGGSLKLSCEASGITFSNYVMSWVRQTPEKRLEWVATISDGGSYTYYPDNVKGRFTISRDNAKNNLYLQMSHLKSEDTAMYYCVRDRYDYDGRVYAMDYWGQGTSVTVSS VL: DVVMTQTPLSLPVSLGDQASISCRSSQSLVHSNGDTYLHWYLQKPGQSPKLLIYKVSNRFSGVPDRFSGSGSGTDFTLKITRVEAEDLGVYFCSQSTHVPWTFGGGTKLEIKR , the value recorded as its raw competing-Ab binding signal is 0.0887

All values here come from patent US20250282885A1.
